Where these numbers come from: ChEMBL document CHEMBL2046351

These compounds were tested on Beta-secretase 1 (Homo sapiens, UniProt P56817); IC50 is the recorded read-out.
Sequence (P56817 whole entry): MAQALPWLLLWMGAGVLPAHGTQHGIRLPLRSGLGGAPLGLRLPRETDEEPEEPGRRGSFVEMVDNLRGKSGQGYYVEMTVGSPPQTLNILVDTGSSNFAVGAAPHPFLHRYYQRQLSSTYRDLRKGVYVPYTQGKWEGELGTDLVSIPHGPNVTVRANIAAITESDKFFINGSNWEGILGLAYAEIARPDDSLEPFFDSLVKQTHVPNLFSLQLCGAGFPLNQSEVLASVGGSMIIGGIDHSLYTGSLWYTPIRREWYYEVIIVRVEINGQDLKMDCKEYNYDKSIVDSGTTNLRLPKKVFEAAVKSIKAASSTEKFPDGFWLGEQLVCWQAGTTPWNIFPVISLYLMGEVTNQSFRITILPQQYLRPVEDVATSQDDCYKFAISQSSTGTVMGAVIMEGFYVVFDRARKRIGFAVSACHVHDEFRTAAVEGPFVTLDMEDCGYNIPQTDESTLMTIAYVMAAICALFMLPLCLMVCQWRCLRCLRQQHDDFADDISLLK
Answers are plain numbers, in nM.

# example entries with known answers
[[record]]
compound = "CC(C)(C)c1cccc(CN[C@H]2CS(=O)(=O)C[C@@H](Cc3cc(F)c(N)c(OCCC(F)(F)F)c3)[C@@H]2O)c1"
test_readout = "IC50"
unit_name = "nM"
recorded_number = 75

[[record]]
compound = "CCc1c[nH]c2ccc(C[C@@H]3CS(=O)(=O)C[C@H](NCc4cccc(C(C)(C)C)c4)[C@H]3O)cc12 (racemic)"
test_readout = "IC50"
unit_name = "nM"
recorded_number = 200

[[record]]
compound = "CC(C)(C)c1cccc(CN[C@H]2CS(=O)(=O)C[C@@H](Cc3ccc4[nH]cc(CC(F)(F)F)c4c3)[C@@H]2O)c1 (racemic)"
test_readout = "IC50"
unit_name = "nM"
recorded_number = 120

[[record]]
compound = "CC(C)(C)c1cccc(CN[C@H]2CS(=O)(=O)C[C@@H](Cc3cc(F)c(N)c(-c4cc[nH]n4)c3)[C@@H]2O)c1 (racemic)"
test_readout = "IC50"
unit_name = "nM"
recorded_number = 28

[[record]]
compound = "CC(C)(C)c1cccc(CN[C@H]2CS(=O)(=O)C[C@@H](Cc3cc(F)c(N)c(-c4ccco4)c3)[C@@H]2O)c1"
test_readout = "IC50"
unit_name = "nM"
recorded_number = 79


For each of the items listed, what is its IC50?
1. CC(C)(C)c1cccc(CN[C@H]2CS(=O)(=O)C[C@@H](Cc3ccc4[nH]ccc4c3)[C@@H]2O)c1 (racemic)
2. CC(C)(C)c1cccc(CN[C@H]2CS(=O)(=O)C[C@@H](Cc3cc(F)c(N)c(OCC(F)F)c3)[C@@H]2O)c1
3. CC(C)(C)c1cccc(CN[C@H]2CS(=O)(=O)C[C@@H](Cc3cc(O)c(N)c(F)c3)[C@@H]2O)c1
4. CCCOc1cc(CC2CS(=O)(=O)CC(NCc3cccc(C(C)(C)C)c3)[C@H]2O)cc(F)c1N (single isomer, unassigned)
5. CC(C)(C)c1cccc(CN[C@H]2CS(=O)(=O)C[C@@H](Cc3ccc(N)c(F)c3)[C@@H]2O)c1
6. CC(C)Oc1cc(C[C@@H]2CS(=O)(=O)C[C@H](NCc3cccc(C(C)(C)C)c3)[C@H]2O)cc(F)c1N

2750
6
120
56
350
43

For each of the items listed, what is its IC50?
1. CC(C)(C)Cc1cc(CN[C@H]2CS(=O)(=O)C[C@@H](Cc3cc(F)c(N)c(OC(C(F)(F)F)C(F)(F)F)c3)[C@@H]2O)no1
2. CC(C)(C)c1cccc(CN[C@H]2CS(=O)(=O)C[C@@H](Cc3cc(F)c(N)c(Br)c3)[C@@H]2O)c1

1: 7; 2: 55

---

For each record, write down the corresponding Papp at 2 h, 5 µM.
Tested on: MDR1 (human)
Experiment: Apparent permeability across MDCK cells expressing human MDR1 at 5 uM after 2 hrs by LC-MS analysis
Format: ADME, cell-based, Canis lupus familiaris
Conditions: dog

# example entries with known answers
[[record]]
compound = "CCc1cc(C[C@@H]2CS(=O)(=O)C[C@H](NCc3cccc(C(C)(C)C)c3)[C@H]2O)cc(F)c1NC(=O)CN(C)C"
test_readout = "Papp at 2 h, 5 µM"
result = "13 ×10⁻⁶ cm/s"

[[record]]
compound = "CC(C)(C)Cn1cc(CN[C@H]2CS(=O)(=O)C[C@@H](Cc3cc(F)c(N)c(OC(C(F)(F)F)C(F)(F)F)c3)[C@@H]2O)cn1"
test_readout = "Papp at 2 h, 5 µM"
result = "16 ×10⁻⁶ cm/s"

[[record]]
compound = "CC(C)(C)c1cccc(CN[C@H]2CS(=O)(=O)C[C@@H](Cc3cc(O)c(N)c(F)c3)[C@@H]2O)c1"
test_readout = "Papp at 2 h, 5 µM"
result = "14 ×10⁻⁶ cm/s"

[[record]]
compound = "CC(C)(C)c1cccc(CN[C@H]2CS(=O)(=O)C[C@@H](Cc3cc(F)c(N)c(C4CC4)c3)[C@@H]2O)c1"
test_readout = "Papp at 2 h, 5 µM"
result = "16 ×10⁻⁶ cm/s"

[[record]]
compound = "CC(C)(C)c1cccc(CN[C@H]2CS(=O)(=O)C[C@@H](Cc3ccc4[nH]cc(CC(F)(F)F)c4c3)[C@@H]2O)c1 (racemic)"
test_readout = "Papp at 2 h, 5 µM"
result = "2.5 ×10⁻⁶ cm/s"


Form field - read-out: Papp at 2 h, 5 µM; system: MDR1 (human); submitted item: "CC(C)(C)c1cccc(CN[C@H]2CS(=O)(=O)C[C@@H](Cc3ccc(N)c(OCC(F)(F)F)c3)[C@@H]2O)c1"
23 ×10⁻⁶ cm/s

---

Tested on: MDR1 (human)
Test: Efflux ratio of permeability from basolateral to apical over apical to basolateral side of MDCK cells expressing human MDR1 at 5 uM after 2 hrs by LC/MS analysis
Assay type: ADME, cell-based, Canis lupus familiaris
Conditions: dog
For each record, write down the corresponding efflux ratio at 2 h, 5 µM.
Answers are plain numbers.

# example entries with known answers
[[record]]
compound = "CC(C)(C)Cn1cc(CN[C@H]2CS(=O)(=O)C[C@@H](Cc3cc(F)c(N)c(OC(C(F)(F)F)C(F)(F)F)c3)[C@@H]2O)cn1"
recorded_number = 46

[[record]]
compound = "Nc1c(F)cc(C[C@@H]2CS(=O)(=O)C[C@H](NCc3cccc(OC(F)(F)F)c3)[C@H]2O)cc1OC(C(F)(F)F)C(F)(F)F"
recorded_number = 6

[[record]]
compound = "CC(C)(C)c1cccc(CN[C@H]2CS(=O)(=O)C[C@@H](Cc3ccc(N)c(OCC(F)(F)F)c3)[C@@H]2O)c1"
recorded_number = 3

[[record]]
compound = "CCCOc1cc(CC2CS(=O)(=O)CC(NCc3cccc(C(C)(C)C)c3)[C@H]2O)cc(F)c1N (single isomer, unassigned)"
recorded_number = 3

[[record]]
compound = "CC(C)(C)c1cccc(CN[C@H]2CS(=O)(=O)C[C@@H](Cc3cc(F)c(N)c(-c4cc[nH]n4)c3)[C@@H]2O)c1 (racemic)"
recorded_number = 17


For each of the items listed, what is its efflux ratio at 2 h, 5 µM?
1. CC(C)(C)c1cccc(CN[C@H]2CS(=O)(=O)C[C@@H](Cc3ccc(N)c(F)c3)[C@@H]2O)c1
2. CC(C)(C)c1cccc(CN[C@H]2CS(=O)(=O)C[C@@H](Cc3cc(F)c4c(c3)C3(CCC3)CN4)[C@@H]2O)c1 (racemic)
3. CCCc1cc(C[C@@H]2CS(=O)(=O)C[C@H](NCc3cccc(C(C)(C)C)c3)[C@H]2O)cc(F)c1N
4. C[C@@H](Oc1cc(C[C@@H]2CS(=O)(=O)C[C@H](NCc3cccc(C(C)(C)C)c3)[C@H]2O)cc(F)c1N)C(F)(F)F
5. CCc1cc(C[C@@H]2CS(=O)(=O)C[C@H](NCc3cccc(C(C)(C)C)c3)[C@H]2O)cc(F)c1N
6. CC(C)(C)c1cccc(CN[C@H]2CS(=O)(=O)C[C@@H](Cc3cc(F)c(N)c(OCCC(F)(F)F)c3)[C@@H]2O)c1

[1, 3, 2, 5, 2, 4]

For each of the items listed, what is its efflux ratio at 2 h, 5 µM?
1. CC(C)(C)c1cccc(CN[C@H]2CS(=O)(=O)C[C@@H](Cc3ccc(N)c(Br)c3)[C@@H]2O)c1
2. CC(C)(C)c1cccc(CN[C@H]2CS(=O)(=O)C[C@@H](Cc3ccc4[nH]cc(CC(F)(F)F)c4c3)[C@@H]2O)c1 (racemic)
3. CC(C)(C)c1cccc(CN[C@H]2CS(=O)(=O)C[C@@H](Cc3cc(F)c(N)c(-c4ccoc4)c3)[C@@H]2O)c1

2
7
2

For each of the items listed, what is its efflux ratio at 2 h, 5 µM?
1. CC(C)(C)c1cccc(CN[C@H]2CS(=O)(=O)C[C@@H](Cc3cc(F)c(N)c(CCC(F)(F)F)c3)[C@@H]2O)c1
2. CCCc1n[nH]c2ccc(C[C@@H]3CS(=O)(=O)C[C@H](NCc4cccc(C(C)(C)C)c4)[C@H]3O)cc12 (racemic)
3. CC(C)(C)c1cccc(CN[C@H]2CS(=O)(=O)C[C@@H](Cc3cc(F)c(N)c(OCC(F)(F)F)c3)[C@@H]2O)c1
4. CC(C)(C)Cc1cc(CN[C@H]2CS(=O)(=O)C[C@@H](Cc3cc(F)c(N)c(OC(C(F)(F)F)C(F)(F)F)c3)[C@@H]2O)no1
5. CC(C)(C)c1cccc(CN[C@H]2CS(=O)(=O)C[C@@H](Cc3cc(F)c(N)c(OCCF)c3)[C@@H]2O)c1
6. CC(C)(C)c1cccc(CN[C@H]2CS(=O)(=O)C[C@@H](Cc3cc(F)c(N)c(Br)c3)[C@@H]2O)c1
7. CCOc1cc(C[C@@H]2CS(=O)(=O)C[C@H](NCc3cccc(C(C)(C)C)c3)[C@H]2O)cc(F)c1N
8. CC(C)(CO)c1cccc(CN[C@H]2CS(=O)(=O)C[C@@H](Cc3cc(F)c(N)c(OC(C(F)(F)F)C(F)(F)F)c3)[C@@H]2O)c1

1. 3
2. 49
3. 5
4. 8
5. 16
6. 2
7. 3
8. 35

For each of the items listed, what is its efflux ratio at 2 h, 5 µM?
1. CC(C)(C)c1cccc(CN[C@H]2CS(=O)(=O)C[C@@H](Cc3cc(F)c(N)c(C4CC4)c3)[C@@H]2O)c1
2. CC(C)(C)O[C@H]1C[C@@H]1CN[C@H]1CS(=O)(=O)C[C@@H](Cc2cc(F)c(N)c(OC(C(F)(F)F)C(F)(F)F)c2)[C@@H]1O (mixture of isomers)

1. 3
2. 4
